biological target: Ba/F3 EGFR L858R/T790M/C797S mutants (Homo sapiens, UniProt P00533, T790M/C797S/L858R, cells depend on it); assay: CellTiter-Glo cell viability, Ba/F3 EGFR L858R/T790M/C797S cells; type: cell-based, murine; conditions: 72 hours, read-out: Ba/F3 EGFR mutant cell (IC50, nM) L/T/C
Sequence (P00533 whole entry T790M/C797S/L858R): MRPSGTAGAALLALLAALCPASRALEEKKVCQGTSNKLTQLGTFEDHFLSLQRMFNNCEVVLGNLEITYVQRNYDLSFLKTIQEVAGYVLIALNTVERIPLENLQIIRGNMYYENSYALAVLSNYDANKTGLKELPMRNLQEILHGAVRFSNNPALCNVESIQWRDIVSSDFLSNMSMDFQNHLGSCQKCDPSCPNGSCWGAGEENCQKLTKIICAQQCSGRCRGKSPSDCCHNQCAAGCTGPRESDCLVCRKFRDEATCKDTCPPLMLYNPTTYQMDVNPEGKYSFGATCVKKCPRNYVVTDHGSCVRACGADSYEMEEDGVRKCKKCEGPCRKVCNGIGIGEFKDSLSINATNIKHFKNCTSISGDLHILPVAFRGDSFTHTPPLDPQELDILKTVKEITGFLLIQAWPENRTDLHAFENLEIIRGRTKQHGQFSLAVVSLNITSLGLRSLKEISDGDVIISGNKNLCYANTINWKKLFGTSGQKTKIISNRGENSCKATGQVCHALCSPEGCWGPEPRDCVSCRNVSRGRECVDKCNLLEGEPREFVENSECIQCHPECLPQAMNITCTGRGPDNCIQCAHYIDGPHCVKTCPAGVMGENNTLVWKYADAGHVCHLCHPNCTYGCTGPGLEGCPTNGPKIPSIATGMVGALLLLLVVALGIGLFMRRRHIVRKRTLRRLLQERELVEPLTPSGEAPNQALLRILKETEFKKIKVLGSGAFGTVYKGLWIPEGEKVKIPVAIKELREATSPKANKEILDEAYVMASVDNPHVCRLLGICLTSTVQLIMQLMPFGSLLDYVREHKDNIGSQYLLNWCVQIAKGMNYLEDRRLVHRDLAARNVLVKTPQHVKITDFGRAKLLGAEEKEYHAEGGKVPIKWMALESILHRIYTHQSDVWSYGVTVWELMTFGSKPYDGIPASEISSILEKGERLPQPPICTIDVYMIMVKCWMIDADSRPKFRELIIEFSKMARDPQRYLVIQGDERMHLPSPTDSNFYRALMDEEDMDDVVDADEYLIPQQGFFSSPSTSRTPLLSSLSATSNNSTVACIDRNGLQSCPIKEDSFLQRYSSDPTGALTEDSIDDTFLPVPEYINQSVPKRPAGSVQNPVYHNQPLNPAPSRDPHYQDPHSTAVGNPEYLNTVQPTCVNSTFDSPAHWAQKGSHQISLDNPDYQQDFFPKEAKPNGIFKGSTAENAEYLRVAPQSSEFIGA
Task for the reader: assign each of the following molecules its reported log10 of GI50.
Could you please treat all values as log10 of GI50 in nM?

[[record]]
substance_smiles = "CCc1cc(Nc2ncc(Br)c(Nc3ccc4nccnc4c3N(C)S(C)(=O)=O)n2)c(OC)cc1N1CC2(C1)CN(C(C)C)C2"
attribute_measured = "log10 of GI50"
reported_result = 1.83

[[record]]
substance_smiles = "COc1cc(OC2CNC2)ccc1Nc1ncc(Cl)c(Nc2ccc3nccnc3c2NS(C)(=O)=O)n1"
attribute_measured = "log10 of GI50"
reported_result = 3.03

[[record]]
substance_smiles = "COc1cc(N2CCC(N3CCN(C)CC3)CC2)ccc1Nc1ncc(Cl)c(Nc2ccc3c(c2NS(C)(=O)=O)OCCO3)n1"
attribute_measured = "log10 of GI50"
reported_result = 2.55

[[record]]
substance_smiles = "COc1cc(N2CCC(N(C)C)CC2)c(C)cc1Nc1ncc(Br)c(Nc2ccc3nccnc3c2N(C)S(C)(=O)=O)n1"
attribute_measured = "log10 of GI50"
reported_result = 1.52


# return log10 of GI50 for each item in the list
1. CCCc1cc(Nc2ncc(Cl)c(Nc3ccc4c(c3NS(C)(=O)=O)OCCO4)n2)c(OC)cc1N1CCC(N(C)C)CC1
2. CCc1cc(Nc2ncc(Cl)c(Nc3ccc4c(c3NS(C)(=O)=O)OCCO4)n2)c(OC)cc1N1CCC(N2CCOCC2)CC1
3. COc1cc(N2CCOCC2)c(C)cc1Nc1ncc(Br)c(Nc2ccc3nccnc3c2NS(C)(=O)=O)n1
4. CCCc1cc(Nc2ncc(Cl)c(Nc3ccc4nccnc4c3N(C)S(C)(=O)=O)n2)c(OC)cc1N1CCC(N2CCCC2)CC1
5. CCc1cc(Nc2ncc(Br)c(Nc3ccc4nccnc4c3NS(C)(=O)=O)n2)c(OC)cc1N1CCC(N2CCCC2)CC1

Result:
1. 1.72
2. 1.48
3. 2.77
4. 2.07
5. 1.26

====

target: Ba/F3 EGFR Del19/T790M mutants (Homo sapiens, UniProt P00533, T790M, cells depend on it, form not given); assay: CellTiter-Glo cell viability, Ba/F3 EGFR Del19/T790M cells; format: cell-based, murine; conditions: 72 hours, read-out: Ba/F3 EGFR mutant cell (IC50, nM) D/T
Sequence (P00533 with tags, fused parts or gaps DEL746-750/T790M, form open): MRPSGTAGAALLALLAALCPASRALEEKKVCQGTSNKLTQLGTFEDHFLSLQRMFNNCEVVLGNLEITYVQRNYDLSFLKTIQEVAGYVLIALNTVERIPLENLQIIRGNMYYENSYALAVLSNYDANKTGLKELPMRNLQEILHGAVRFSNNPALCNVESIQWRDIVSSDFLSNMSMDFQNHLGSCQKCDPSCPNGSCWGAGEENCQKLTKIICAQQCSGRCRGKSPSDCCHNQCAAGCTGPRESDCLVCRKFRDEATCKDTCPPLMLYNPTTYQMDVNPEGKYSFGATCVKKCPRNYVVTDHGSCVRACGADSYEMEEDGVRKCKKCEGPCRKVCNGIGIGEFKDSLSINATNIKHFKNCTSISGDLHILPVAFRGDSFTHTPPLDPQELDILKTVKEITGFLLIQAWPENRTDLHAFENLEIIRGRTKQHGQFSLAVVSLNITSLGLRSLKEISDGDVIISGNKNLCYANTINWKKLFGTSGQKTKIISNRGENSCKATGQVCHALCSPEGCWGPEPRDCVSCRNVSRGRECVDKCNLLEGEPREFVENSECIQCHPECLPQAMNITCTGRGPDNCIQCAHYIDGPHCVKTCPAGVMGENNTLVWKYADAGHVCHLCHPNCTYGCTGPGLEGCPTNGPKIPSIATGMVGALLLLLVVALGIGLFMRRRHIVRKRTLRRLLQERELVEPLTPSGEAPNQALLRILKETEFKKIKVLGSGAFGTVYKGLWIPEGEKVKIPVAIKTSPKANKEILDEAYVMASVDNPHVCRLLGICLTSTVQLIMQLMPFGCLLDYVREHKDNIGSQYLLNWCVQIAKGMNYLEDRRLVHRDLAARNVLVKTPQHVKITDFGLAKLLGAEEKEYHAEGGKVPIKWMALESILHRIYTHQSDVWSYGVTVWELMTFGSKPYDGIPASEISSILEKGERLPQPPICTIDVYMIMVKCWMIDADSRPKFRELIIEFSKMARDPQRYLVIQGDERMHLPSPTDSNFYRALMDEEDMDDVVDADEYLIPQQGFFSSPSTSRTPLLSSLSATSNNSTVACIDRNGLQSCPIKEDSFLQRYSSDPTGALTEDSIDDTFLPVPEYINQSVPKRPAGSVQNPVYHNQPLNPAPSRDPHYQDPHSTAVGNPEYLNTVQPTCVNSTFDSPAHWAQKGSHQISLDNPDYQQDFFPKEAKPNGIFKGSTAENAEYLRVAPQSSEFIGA
attribute-measured: GI50

# annotated cases, reported GI50 shown
[[record]]
compound = "COc1cc(N2CCC(N3CCN(C)CC3)CC2)c(F)cc1Nc1ncc(Br)c(Nc2ccc3nccnc3c2NS(C)(=O)=O)n1 [Example A27]"
attribute_measured = "GI50"
reported_result = "27 nM"

[[record]]
compound = "COc1cc(C2CCNCC2)ccc1Nc1ncc(Br)c(Nc2ccc3nccnc3c2NS(C)(=O)=O)n1 [Example B18]"
attribute_measured = "GI50"
reported_result = "598 nM"

[[record]]
compound = "CCc1cc(Nc2ncc(Cl)c(Nc3ccc4nccnc4c3NS(C)(=O)=O)n2)c(OC)cc1N1CC2CCC1CN2C(C)C (stereo not shown) [Example B25]"
attribute_measured = "GI50"
reported_result = "26 nM"


Moving on to another compound below.
Ask: For the compound shown here, COc1cc(N2CCC(N3CCN(C)CC3)CC2)c(C)cc1Nc1ncc(C)c(Nc2ccc3nccnc3c2NS(C)(=O)=O)n1 [Example A21] , give the reported GI50.
Result: 24 nM
